The measurements presented in this section are drawn from paper PMC5540273.

Tested on: JAK2(JH1domain-catalytic)
MEASUREMENT CONTEXT: concentration: 1 μM, replicates: in singlicate; n = 1;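 also: KINOMEscan kinase panel screen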
Just a reminder that ties go to False: only %Inh strictly below 40% counts as True.

See these solved cases before continuing.
1. C[C@@H]1CC[C@@H](C(=O)Nc2ccccc2)CN1c1cc(-c2ccc3c(N)n[nH]c3c2)nc(N)n1 ... True
2. COc1cccc(NC(=O)NC2CCN(c3ccnc(Nc4cc(OC)c(OC)c(OC)c4)n3)C2)c1 (stereo not drawn) ... False
3. O=C(Nc1cccc(-c2nn3ncccc3c2-c2ccnc(Nc3ccccc3)n2)c1)c1c(F)cccc1F ... True
4. O=C(Nc1ccccc1F)NC1CCN(c2ccnc(Nc3ccc(F)cc3)n2)CC1 ... True

Turning now to a further record.
Input: is_below(%Inh, 40%) for COc1ccc(Nc2nccc(N3CCC(NC(=O)Nc4cccc(OC)c4)C3)n2)cc1 (stereo not drawn) ?
Output: True

* * *

Task for the reader: assign each of the following molecules its reported %Inh.
System: RIPK1
MEASUREMENT CONTEXT: concentration: 1 μM, replicates: in singlicate; n = 1
Give bare numbers, in %.

1) CN(C)S(=O)(=O)c1cc(-c2ccc3nccc(-c4cccc(S(N)(=O)=O)c4)c3c2)cnc1N ... 4
2) COCCOCCOc1cc2ncc3c4ccc(C#N)cc4[nH]c3c2cc1OC ... 20
3) COc1cccc(NC(=O)NC2CCN(c3ccnc(Nc4cc(OC)c(OC)c(OC)c4)n3)C2)c1 (stereo not shown) ... 6

Query molecule follows.
Input: Report %Inh for "c1ccc(-c2cnc3nccnn23)cc1"
Output: 0

* * *

Tested on: FLT4
MEASUREMENT CONTEXT: concentration: 1 μM, replicates: in singlicate; n = 1
Just a reminder that ties go to not fulfilled: only %Inh strictly below 20% counts as fulfilled.

See these solved cases before continuing.
1. COc1cccc(NC(=O)NC2CCN(c3ccnc(Nc4cc(OC)c(OC)c(OC)c4)n3)C2)c1 (stereo not drawn) ... not fulfilled
2. C[C@@H](Oc1cc(-n2cnc3cc(-c4ccnc(NCCS(C)(=O)=O)c4)ccc32)sc1C(N)=O)c1ccccc1Cl ... not fulfilled
3. COc1cc(Nc2nccc(-c3c(-c4cccc(NC(=O)c5c(F)cccc5F)c4)nn4ncccc34)n2)cc(OC)c1OC ... not fulfilled

Input: is_below(%Inh, 20%) for "COc1ccc(Nc2nccc(NCCNC(=O)c3cc4ccccc4s3)n2)cc1" ?
Output: fulfilled

Input: is_below(%Inh, 20%) for "CC(=O)N1CCN(c2ccc(Nc3nccc(-c4sc(C(C)C)nc4-c4cccc(NS(=O)(=O)c5cccc(Cl)c5)c4)n3)cn2)CC1" ?
Output: not fulfilled

Input: is_below(%Inh, 20%) for "COC(=O)Nc1nc2cc(Oc3ccc(NC(=O)Nc4cc(C(F)(F)F)ccc4F)cn3)ccc2[nH]1.Cl.Cl" ?
Output: not fulfilled

Input: is_below(%Inh, 20%) for "O=C(Nc1n[nH]c2nc(-c3ccc(O)cc3)ccc12)C1CC1" ?
Output: fulfilled

* * *

Tested on: PHKG1
MEASUREMENT CONTEXT: concentration: 1 μM, replicates: in singlicate; n = 1
Just a reminder that ties go to 0.0: only %Inh strictly below 20% counts as 1.0.

See these solved cases before continuing.
1) Cc1ccc(C(=O)N2CC[C@@H](O)C2)cc1-n1c(C)cc(OCc2ccc(F)cc2F)c(Br)c1=O ... 1.0
2) c1ccc(-c2n[nH]cc2Nc2ccnc3ccccc23)nc1 ... 1.0
3) O=C(Nc1cccc(-c2nn3ccccc3c2-c2ccnc(Nc3cccc(C(F)(F)F)c3)n2)c1)c1c(F)cccc1F ... 1.0
4) Cc1ccc(F)c(C(=O)Nc2cccc(-c3nn4ccccc4c3-c3ccnc(Nc4cccc(F)c4)n3)c2)c1F ... 1.0
5) COCCOCCOc1cc2ncc3c4ccc(C#N)cc4[nH]c3c2cc1OC ... 0.0

Input: is_below(%Inh, 20%) for "Nc1n[nH]c2cnc(-c3ccccc3)cc12" ?
Output: 1.0

Input: is_below(%Inh, 20%) for Cl.Cl.NCC(NC(=O)c1cc(-c2ccccc2)c(-c2ccnc3[nH]ccc23)s1)c1ccccc1 (stereo not shown) ?
Output: 1.0

Input: is_below(%Inh, 20%) for "CNC(=O)c1ccccc1Nc1nc(Nc2ccc(N3CCOCC3)cc2)ncc1Cl.Cl" ?
Output: 0.0

Input: is_below(%Inh, 20%) for Cl.Cl.NCC(NCc1ccc(-c2ccnc3[nH]ccc23)s1)c1ccccc1 (stereo not shown) ?
Output: 1.0

Input: is_below(%Inh, 20%) for "Cn1cc(-c2[nH]c3cc(NC(=O)[C@H](N)C4CCCCC4)cc4c3c2C=NNC4=O)cn1" ?
Output: 0.0
